Experiment: Drug concentration in plasma of Sprague-Dawley rat at 10 mg/kg, po measured after 3 hrs by LC/MS-MS analysis
Format: ADME, organism-based

# mol_smiles, concentration at 3 h [µM]
measured = [
    ("CNC(=O)c1ccc(-c2c(C)nc3c(OCc4ccc(-c5ccc(F)cc5)cc4F)cccn23)cn1.Cl", 5.7),
]

====

Test system: Rattus norvegicus
Assay: Reduction in amyloid beta 42 production in Sprague-Dawley rat plasma at 30 mg/kg, po measured after 3 to 4 hrs by ELISA relative to control
Type: functional

# mol_smiles, unit_symbol, inhibition in vivo at 30 mg/kg
measured = [
    ("Cc1nc2c(OCc3ccc(-c4ccc(F)cc4)cc3)cccn2c1-c1ccc2c(=O)n(C)oc2c1.Cl", "%", 81),
    ("CCNC(=O)c1ccc(-c2c(C)nc3c(OCc4ccc(-c5ccc(C(F)(F)F)cc5)cc4)cccn23)cn1.Cl", "%", 40),
    ("CCNC(=O)c1ccc(-c2c(C)nc3c(OCc4ccc(-c5ccccc5)cc4)cccn23)cn1.Cl", "%", 28),
    ("CCNC(=O)c1ccc(-c2c(C)nc3c(OCc4ccc(-c5cccc(F)c5)cc4)cccn23)cn1", "%", 42),
    ("CNC(=O)c1ccc(-c2c(C)nc3c(OCc4ccc(-c5ccc(F)cc5)cc4F)cccn23)cn1.Cl", "%", 77),
    ("CCNC(=O)c1ccc(-c2c(C)nc3c(OCc4ccc(-c5ccc(F)cc5)cc4)cccn23)cn1", "%", 43),
    ("CNC(=O)c1ccc(-c2c(C)nc3c(OCc4ccc(-c5ccc(F)cc5)cc4)cccn23)cn1.Cl", "%", 68),
    ("CCN1Cc2cc(-c3c(C)nc4c(OCc5ccc(-c6ccc(F)cc6)cc5)cccn34)ccc2C1=O", "%", 59),
    ("CCn1oc2cc(-c3c(C)nc4c(OCc5ccc(-c6ccc(F)cc6)cc5)cccn34)ccc2c1=O", "%", 63),
    ("CCNC(=O)c1ccc(-c2c(C)nc3c(OCc4ccc(-c5cccc(C(F)(F)F)c5)cc4)cccn23)cn1", "%", 62),
]

====

Assay: Intrinsic clearance in rat liver microsomes at 0.2 uM incubated upto 45 mins by LC/MS-MS analysis
Type: ADME, Microsome
Conditions: liver microsomes, read-out: CLH
assay_metric: CLint scaled at 0.2 µM (mL/min/kg)

# mol_smiles, assay_metric, value_reported
data = [
    ("CCNC(=O)c1ccc(-c2c(C)nc3c(OCc4ccc(-c5ccc(F)cc5)cc4)cccn23)cn1", "CLint scaled at 0.2 µM", 221),
    ("CCn1oc2cc(-c3c(C)nc4c(OCc5ccc(-c6ccc(F)cc6)cc5)cccn34)ccc2c1=O", "CLint scaled at 0.2 µM", 214),
    ("CCNC(=O)c1ccc(-c2c(C)nc3c(OCc4ccc(-c5cccc(C(F)(F)F)c5)cc4)cccn23)cn1", "CLint scaled at 0.2 µM", 38),
]

====

Assay: Drug concentration in brain of Sprague-Dawley rat at 30 mg/kg, po measured after 3 hrs by LC/MS-MS analysis
Assay type: ADME, organism-based
Settings: in vivo

# mol_smiles, unit_symbol, Ct
rows = [
    ("CNC(=O)c1ccc(-c2c(C)nc3c(OCc4ccc(-c5ccc(F)cc5)cc4)cccn23)cn1.Cl", "nmol/g", 7.1),
    ("CNC(=O)c1ccc(-c2c(C)nc3c(OCc4ccc(-c5ccc(F)cc5)cc4F)cccn23)cn1.Cl", "nmol/g", 3.5),
    ("Cc1nc2c(OCc3ccc(-c4ccc(F)cc4)cc3)cccn2c1-c1ccc2c(=O)n(C)oc2c1.Cl", "nmol/g", 5.6),
    ("CCNC(=O)c1ccc(-c2c(C)nc3c(OCc4ccc(-c5ccccc5)cc4)cccn23)cn1.Cl", "nmol/g", 2.1),
]

====

Target: CYP3A4 (Homo sapiens, UniProt P08684)
Sequence (P08684 whole entry): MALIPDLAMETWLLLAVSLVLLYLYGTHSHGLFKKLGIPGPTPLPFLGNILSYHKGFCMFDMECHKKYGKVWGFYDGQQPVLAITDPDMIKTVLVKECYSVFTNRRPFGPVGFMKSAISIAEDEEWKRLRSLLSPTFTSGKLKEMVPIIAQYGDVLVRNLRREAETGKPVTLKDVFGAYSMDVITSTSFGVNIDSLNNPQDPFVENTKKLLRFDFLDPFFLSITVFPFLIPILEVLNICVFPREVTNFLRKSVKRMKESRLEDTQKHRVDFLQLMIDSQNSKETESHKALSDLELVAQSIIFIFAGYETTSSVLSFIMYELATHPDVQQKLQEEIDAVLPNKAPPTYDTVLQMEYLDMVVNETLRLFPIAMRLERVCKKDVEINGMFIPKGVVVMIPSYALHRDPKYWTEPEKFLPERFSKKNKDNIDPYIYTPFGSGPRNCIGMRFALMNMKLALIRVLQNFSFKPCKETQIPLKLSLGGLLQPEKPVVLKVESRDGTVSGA
Experiment: Inhibition of CYP3A4 in human liver microsome assessed as enzyme residual activity pre-incubated for 30 min followed by midazolam addition incubated for 20 mins by LC-MS/MS analysis relative to control
Type: ADME
Settings: liver microsomes, probe midazolam, read-out: INH

# mol_smiles, measured_target, activity at 20 min
data = [
    ("CNC(=O)c1ccc(-c2c(C)nc3c(OCc4ccc(-c5ccc(F)cc5)cc4F)cccn23)cn1.Cl", "CYP3A4 (Homo sapiens, UniProt P08684)", "104%"),
]

====

Molecular target: Gamma-secretase
Assay: Inhibition of gamma-secretase in human SK-N-BE cells assessed as decrease in amyloid beta 42 production treated for 6 hrs by ELISA

# mol_smiles, IC50
data = [
    ("CCNC(=O)c1ccc(-c2c(C)nc3c(OCc4ccc(-c5ccccc5C(F)(F)F)cc4)cccn23)cn1", "180 nM"),
    ("CCNC(=O)c1ccc(-c2c(C)nc3c(OCc4ccc(-c5cccc(C(F)(F)F)c5)cc4)cccn23)cn1", "61 nM"),
    ("CCn1[nH]c2cc(-c3c(C)nc4c(OCc5ccc(-c6ccc(F)cc6)cc5)cccn34)ccc2c1=O", "390 nM"),
    ("CCNC(=O)c1ccc(-c2c(C)nc3c(OCc4ccc(-c5ccc(C(F)(F)F)cc5)cc4)cccn23)cn1.Cl", "210 nM"),
    ("CCn1c(=O)c2ccc(-c3c(C)nc4c(OCc5ccc(-c6ccc(F)cc6)cc5)cccn34)cc2n1C", "> 2000 nM"),
    ("CNC(=O)c1ccc(-c2c(C)nc3c(OCc4ccc(-c5ccc(F)cc5)cc4)cccn23)cn1.Cl", "37 nM"),
    ("CNC(=O)c1ccc(-c2c(C)nc3c(OCc4ccc(-c5ccc(F)cc5)cc4F)cccn23)cn1.Cl", "29 nM"),
    ("CCNC(=O)c1ccc(-c2c(C)nc3c(OCc4ccc(-c5cccc(F)c5)cc4)cccn23)cn1", "99 nM"),
]

====

Test: Ratio of drug concentration in plasma of Sprague-Dawley rat at 30 mg/kg, po to IC50 of gamma-secretase in human SK-N-BE cells
Format: ADME, organism-based
Conditions: in vivo
Listed here are compounds together with their documented Ratio.

# mol_smiles, Ratio
records = [
    ("Cc1nc2c(OCc3ccc(-c4ccc(F)cc4)cc3)cccn2c1-c1ccc2c(=O)n(C)oc2c1.Cl", 304),
    ("CNC(=O)c1ccc(-c2c(C)nc3c(OCc4ccc(-c5ccc(F)cc5)cc4F)cccn23)cn1.Cl", 561),
    ("CNC(=O)c1ccc(-c2c(C)nc3c(OCc4ccc(-c5ccc(F)cc5)cc4)cccn23)cn1.Cl", 446),
    ("CCNC(=O)c1ccc(-c2c(C)nc3c(OCc4ccc(-c5ccccc5)cc4)cccn23)cn1.Cl", 75),
]

====

Assay: Ratio of drug concentration in brain of Sprague-Dawley rat at 30 mg/kg, po to IC50 of gamma-secretase in human SK-N-BE cells
Type: ADME, organism-based
Conditions: in vivo
assay_metric: Ratio

# mol_smiles, value_reported
measured = [
    ("CNC(=O)c1ccc(-c2c(C)nc3c(OCc4ccc(-c5ccc(F)cc5)cc4)cccn23)cn1.Cl", 193),
    ("CNC(=O)c1ccc(-c2c(C)nc3c(OCc4ccc(-c5ccc(F)cc5)cc4F)cccn23)cn1.Cl", 121),
    ("CCNC(=O)c1ccc(-c2c(C)nc3c(OCc4ccc(-c5ccccc5)cc4)cccn23)cn1.Cl", 23),
    ("Cc1nc2c(OCc3ccc(-c4ccc(F)cc4)cc3)cccn2c1-c1ccc2c(=O)n(C)oc2c1.Cl", 81),
]

====

Target: Cytochrome P450 2C19 (Homo sapiens)
Sequence (P33261 whole entry): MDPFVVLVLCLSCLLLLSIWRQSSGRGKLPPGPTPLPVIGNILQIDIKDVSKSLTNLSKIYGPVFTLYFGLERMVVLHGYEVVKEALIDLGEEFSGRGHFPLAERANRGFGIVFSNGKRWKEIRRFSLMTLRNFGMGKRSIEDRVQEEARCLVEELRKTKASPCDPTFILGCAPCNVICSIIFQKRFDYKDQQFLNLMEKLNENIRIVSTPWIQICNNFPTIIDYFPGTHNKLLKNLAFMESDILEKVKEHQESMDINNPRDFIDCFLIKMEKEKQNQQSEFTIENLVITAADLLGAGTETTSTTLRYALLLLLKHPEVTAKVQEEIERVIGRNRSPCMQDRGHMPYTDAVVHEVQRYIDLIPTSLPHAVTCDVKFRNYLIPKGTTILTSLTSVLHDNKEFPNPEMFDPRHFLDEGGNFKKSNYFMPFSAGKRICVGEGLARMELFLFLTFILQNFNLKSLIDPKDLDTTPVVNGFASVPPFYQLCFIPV
Experiment: Inhibition of human recombinant CYP2C19 assessed as reduction in metabolite formation using CEC as substrate incubated for 20 mins by fluorescence assay
assay_metric: IC50

# mol_smiles, value_reported
records = [
    ("CNC(=O)c1ccc(-c2c(C)nc3c(OCc4ccc(-c5ccc(F)cc5)cc4F)cccn23)cn1.Cl", "> 10 µM"),
]

====

Experiment: Ratio of drug concentration in brain to blood of Sprague-Dawley rat at 10 mg/kg, po measured after 3 hrs by LC/MS-MS analysis
Type: ADME, organism-based
Conditions: brain and blood

# mol_smiles, Kp at 3 h
data = [
    ("CNC(=O)c1ccc(-c2c(C)nc3c(OCc4ccc(-c5ccc(F)cc5)cc4F)cccn23)cn1.Cl", 0.27),
]

====

Listed here are molecules together with their documented concentration at 3 h.
Test: Drug concentration in plasma of Sprague-Dawley rat at 30 mg/kg, po measured after 3 hrs by LC/MS-MS analysis
Type: ADME, organism-based

# mol_smiles, unit_symbol, concentration at 3 h
records = [
    ("CNC(=O)c1ccc(-c2c(C)nc3c(OCc4ccc(-c5ccc(F)cc5)cc4F)cccn23)cn1.Cl", "µM", 16),
    ("Cc1nc2c(OCc3ccc(-c4ccc(F)cc4)cc3)cccn2c1-c1ccc2c(=O)n(C)oc2c1.Cl", "µM", 21),
    ("CNC(=O)c1ccc(-c2c(C)nc3c(OCc4ccc(-c5ccc(F)cc5)cc4)cccn23)cn1.Cl", "µM", 17),
    ("CCNC(=O)c1ccc(-c2c(C)nc3c(OCc4ccc(-c5ccccc5)cc4)cccn23)cn1.Cl", "µM", 6.8),
]
